Data credit: paper PMC12416549

- experimental.target: T1, TNFR1 (Homo sapiens, UniProt P19438)
- T1 chain: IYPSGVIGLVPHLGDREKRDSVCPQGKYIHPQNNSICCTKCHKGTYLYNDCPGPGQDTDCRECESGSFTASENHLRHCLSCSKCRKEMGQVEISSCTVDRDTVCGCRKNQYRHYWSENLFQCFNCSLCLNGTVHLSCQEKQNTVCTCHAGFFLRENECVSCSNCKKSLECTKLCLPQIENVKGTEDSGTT
- assay.name: yeast display SC50
measurement.name: apparent Kd (screen) (nM)
Give bare numbers, in nM.

1. I21S (designed binder) SMEEEVEKAAKEYEKKKKEASEKHLEKLKAKDKEAAERFLKELEEAAKEYAKDEAKTMSEEEAKRRAKKYKEKVLLSELSEEEQKEIKEAEEKLVRTILKYVEEAAK | 0.446
2. E4L (designed binder) SMELEVEKAAKEYEKKKKEAIEKHLEKLKAKDKEAAERFLKELEEAAKEYAKDEAKTMSEEEAKRRAKKYKEKVLLSELSEEEQKEIKEAEEKLVRTILKYVEEAAK | 0.79
3. K23Q (designed binder) SMEEEVEKAAKEYEKKKKEAIEQHLEKLKAKDKEAAERFLKELEEAAKEYAKDEAKTMSEEEAKRRAKKYKEKVLLSELSEEEQKEIKEAEEKLVRTILKYVEEAAK | 0.446

Read the next record carefully.
Reported apparent Kd (screen) for K17N (designed binder) SMEEEVEKAAKEYEKKNKEAIEKHLEKLKAKDKEAAERFLKELEEAAKEYAKDEAKTMSEEEAKRRAKKYKEKVLLSELSEEEQKEIKEAEEKLVRTILKYVEEAAK was 2.73
